This section presents molecules with their documented plate-normalised HSF1 focus index values.
# test-details: compounds altering HSF1 focus formation in cells – imaging, Selleck Cancer Library (AID 1347162)
# measurement-parameters: human cells, HSF1 nuclear foci imaging, at 10 µM; hits give low values
Form: value (number only, do not type unit).

# molecule, data-value
rows = [
    ("CNNCc1ccc(C(=O)NC(C)C)cc1", 1.17),
    ("COc1cc2c(Nc3ccc(Br)cc3F)ncnc2cc1OCC1CCN(C)CC1", 0.799),
    ("CC(c1cc2ccccc2s1)N(O)C(N)=O (configuration not stated)", 1.14),
    ("CCC(C)n1ncn(-c2ccc(N3CCN(c4ccc(OC[C@H]5CO[C@](Cn6cncn6)(c6ccc(Cl)cc6Cl)O5)cc4)CC3)cc2)c1=O (some centres not stated)", 1.11),
    ("N#Cc1ccc(C(c2ccc(C#N)cc2)n2cncn2)cc1", 1.1),
    ("O=NN(CCCl)C(=O)NC1CCCCC1", 1.01),
]

Problem: Which plate-normalised HSF1 focus index reading was recorded for the molecule CC(=O)[C@]1(O)Cc2c(O)c3c(c(O)c2[C@@H](O[C@H]2C[C@H](N)[C@H](O)[C@H](C)O2)C1)C(=O)c1ccccc1C3=O ?
Result: 0.0445

Problem: Which plate-normalised HSF1 focus index reading was recorded for the molecule Cc1ccc(NC(=O)c2ccc(CN3CCN(C)CC3)cc2)cc1Nc1nccc(-c2cccnc2)n1 ?
Result: 1.13

Problem: Which plate-normalised HSF1 focus index reading was recorded for the molecule CN(Cc1cnc2nc(N)nc(N)c2n1)c1ccc(C(=O)N[C@@H](CCC(=O)O)C(=O)O)cc1 ?
Result: 1.08

Problem: Which plate-normalised HSF1 focus index reading was recorded for the molecule Cc1cc2c(C(C)C)c(O)c(O)c(C=O)c2c(O)c1-c1c(C)cc2c(C(C)C)c(O)c(O)c(C=O)c2c1O ?
Result: 0.468

Problem: Which plate-normalised HSF1 focus index reading was recorded for the molecule CC[C@@]1(O)C(=O)OCc2c1cc1n(c2=O)Cc2cc3c(CN(C)C)c(O)ccc3nc2-1 ?
Result: 0.582

Problem: Which plate-normalised HSF1 focus index reading was recorded for the molecule Cc1nc(-c2ccc(OCC(C)C)c(C#N)c2)sc1C(=O)O ?
Result: 1.06

* * *

This section presents compounds with their documented inhibition values.
# assay-target: 6-phosphogluconate dehydrogenase, decarboxylating (Homo sapiens) (UniProt P52209)
# Sequence (P52209 whole entry, looked up): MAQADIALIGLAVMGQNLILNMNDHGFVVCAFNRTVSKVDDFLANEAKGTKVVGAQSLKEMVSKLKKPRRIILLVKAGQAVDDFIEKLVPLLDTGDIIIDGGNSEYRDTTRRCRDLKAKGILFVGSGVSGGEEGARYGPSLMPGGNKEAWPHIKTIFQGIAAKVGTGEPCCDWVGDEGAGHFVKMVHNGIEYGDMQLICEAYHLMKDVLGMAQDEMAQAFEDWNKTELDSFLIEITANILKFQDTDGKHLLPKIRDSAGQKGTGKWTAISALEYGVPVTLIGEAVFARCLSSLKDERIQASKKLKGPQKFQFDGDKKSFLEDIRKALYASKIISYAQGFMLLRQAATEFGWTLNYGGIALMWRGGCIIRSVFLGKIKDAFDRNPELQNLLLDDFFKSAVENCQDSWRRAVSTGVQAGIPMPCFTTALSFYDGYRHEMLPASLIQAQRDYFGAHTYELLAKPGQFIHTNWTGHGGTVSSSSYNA
# test-details: inhibition of human phosphogluconate dehydrogenase – biochemical, recombinant enzyme, NADPH absorbance, primary screen (AID 1159550)
# measurement-parameters: recombinant 6PGD, NADPH absorbance 341 nm; at 10 µM; hits give high values
Starred links: 1 amine or outer side, 2 acyl side, 3 side chain; linkers in the order of their positions; H or OH if unused. Positions of bridges follow the written chain, without caps; N, C: chain ends. Non-standard residues stand in square brackets, D forms with d. Residues, ends and D or L forms follow the SMILES beside them. Chains are numbered I, II in the order given. Actinocin(9to1) = Cc1c2oc3c(C)ccc(C(=O)[*:1])c3nc-2c(C(=O)[*:2])c(N)c1=O; NMeV = CN[C@H](C(=O)O)C(C)C; Sar = CNCC(=O)O
Give the quantity in %, number only.

Worked set:
# compound, unit-spec, data-value
measured = [
    ("CCN(CC)C(=O)N1CCN(C)CC1", "%", 10.8),
    ("CC1(C)O[C@H]2CC(=O)OC[C@]23[C@H]2CC[C@@]4(C)[C@H](c5ccoc5)OC(=O)[C@H]5O[C@]54[C@]2(C)C(=O)C[C@@H]13", "%", 5.47),
    ("CC(=O)O[C@]1(C(C)=O)CC[C@H]2[C@@H]3C=C(Cl)C4=CC(=O)[C@@H]5C[C@@H]5[C@]4(C)[C@H]3CC[C@@]21C", "%", -7.53),
    ("Nc1ccc(N=Nc2ccccc2)c(N)n1", "%", 3.23),
    ("Cc1c2oc3c(C)ccc(C(=O)N[C@@H]4C(=O)N[C@H](C(C)C)C(=O)N5CCC[C@H]5C(=O)N(C)CC(=O)N(C)[C@@H](C(C)C)C(=O)O[C@@H]4C)c3nc-2c(C(=O)N[C@@H]2C(=O)N[C@H](C(C)C)C(=O)N3CCC[C@H]3C(=O)N(C)CC(=O)N(C)[C@@H](C(C)C)C(=O)O[C@@H]2C)c(N)c1=O (I: T[dV]P[Sar][NMeV] / II: T[dV]P[Sar][NMeV]; ester I:1-I:C, II:1-II:C; linker I:N-II:N via Actinocin(9to1))", "%", -6.87),
]

Please examine the following record next.
Problem: Which inhibition reading was recorded for the compound CCCCNc1ccc(C(=O)OCCN(C)C)cc1 ?
Result: -7.63

* * *

This section presents compounds with their documented mean signal values.
# test-details: modulation of C. elegans fzo-1 (AID 1259413);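 note: fzo-1 mutant C. elegans worms in liquid wells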
# measurement-parameters: C. elegans fzo-1 modulator screen, mean read-out; hits give high values
Form: value (number only, do not type unit).

# compound, attribute-measured, data-value
data = [
    ("CN1CCN(C2=Nc3ccccc3Oc3ccc(Cl)cc32)CC1", "mean signal", 262),
    ("NC(=O)OCC(COC(N)=O)c1ccccc1", "mean signal", 234),
    ("Clc1ccccc1C(c1ccccc1)(c1ccccc1)n1ccnc1", "mean signal", 209),
    ("CCc1nn(CCCN2CCN(c3cccc(Cl)c3)CC2)c(=O)n1CCOc1ccccc1", "mean signal", 239),
    ("C[C@H](NC(CCc1ccccc1)C(=O)O)C(=O)N1CCC[C@H]1C(=O)O (stereo partly specified)", "mean signal", 226),
]

Problem: Which mean signal reading was recorded for the compound OCc1cccnc1 ?
Result: 224

Problem: Which mean signal reading was recorded for the compound CC(C)(C)NC(=O)[C@@H]1CN(Cc2cccnc2)CCN1C[C@@H](O)C[C@@H](Cc1ccccc1)C(=O)N[C@H]1c2ccccc2C[C@H]1O ?
Result: 283

Problem: Which mean signal reading was recorded for the compound COc1ccccc1N1CCN(CC(O)COc2cccc3ccccc23)CC1 (stereo unspecified) ?
Result: 202

Problem: Which mean signal reading was recorded for the compound Cc1c(O)cccc1C(=O)N[C@@H](CSc1ccccc1)[C@H](O)CN1C[C@H]2CCCC[C@H]2C[C@H]1C(=O)NC(C)(C)C ?
Result: 243

* * *

# test-details: compounds altering circadian rhythm period length – cell-based, LOPAC library, luminescence reporter (AID 2774);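 note: values are relative to mean of DMSO wells on each plate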
# measurement-parameters: circadian reporter cells, at 7 µM, actives lie on both sides
Activity calls are given as the source filed them. The rule behind the calls is not given here.
This section presents molecules with their documented period change values.

# molecule, period change
data = [
    ("OCc1cc(C(O)CNCCCCCCOCCCCc2ccccc2)ccc1O (stereo not drawn)", "-0.06 h (inactive)"),
]

Problem: Which period change reading was recorded for the molecule COc1cc2c(cc1OC)-c1cc(=Nc3c(C)cc(C)cc3C)n(C)c(=O)n1CC2 ?
Result: 0.41 h (inactive)

Problem: Which period change reading was recorded for the molecule CCC1(C)CC(=O)NC1=O (stereo not drawn) ?
Result: 0.01 h (inactive)

Problem: Which period change reading was recorded for the molecule CCN(CC)CCNC(=O)c1cc(Cl)c(N)cc1OC ?
Result: -0.015 h (inactive)

Problem: Which period change reading was recorded for the molecule NC(N)=NC(=O)Cc1c(Cl)cccc1Cl ?
Result: 0.09 h (inactive)

Problem: Which period change reading was recorded for the molecule Cc1cccc(C)c1OCC(C)N (stereo not drawn) ?
Result: 0.025 h (inactive)

Problem: Which period change reading was recorded for the molecule CCCOc1ccccc1-c1nc2n[nH]nc2c(=O)[nH]1 ?
Result: -0.2 h (inactive)

Problem: Which period change reading was recorded for the molecule C[N+](C)(C)CCOC(N)=O ?
Result: 0.05 h (inactive)

Problem: Which period change reading was recorded for the molecule CCN1CCC[C@H]1CNC(=O)c1c(O)c(Cl)cc(Cl)c1OC ?
Result: -0.03 h (inactive)

Problem: Which period change reading was recorded for the molecule CCOC(=O)C(C)(C)Oc1ccc(Cl)cc1 ?
Result: -0.13 h (inactive)

* * *

# test-details: growth inhibition of GSK3B-pretreated HCT116 cells – cell-based, CellTiter-Glo, 0.2 to 20 µM (AID 1117336)
# measurement-parameters: HCT116 viability after GSK3B inhibitor, at 20 µM, hits give high values
attribute-measured: viability decrease (%)
Give the quantity in %, number only.

# molecule, viability decrease / %
data = [
    ("Nc1ccc(O)c(C(=O)O)c1", 2.55),
    ("Cc1ccc(C(=O)C(C)CN2CCCCC2)cc1 (stereo unspecified)", -13.7),
    ("Nc1nc2c(ncn2CCC(CO)CO)c(=O)[nH]1", 0.03),
]

Problem: Which viability decrease reading was recorded for the molecule COc1cccc2c1C(=O)c1c(O)c3c(c(O)c1C2=O)C[C@@](O)(C(=O)CO)C[C@@H]3O[C@H]1C[C@H](N)[C@H](O)[C@H](C)O1 ?
Result: -114

Problem: Which viability decrease reading was recorded for the molecule CC1CCc2cc(F)cc3c(=O)c(C(=O)O)cn1c23 (stereo unspecified) ?
Result: -105

Problem: Which viability decrease reading was recorded for the molecule NCCCC(=O)O ?
Result: 3.2
